target: ERα protein (HiBiT-tagged) in ESR1_HiBiT KI MCF7 cells (Homo sapiens, UniProt P03372); assay: Nano Glo HiBiT Lytic Degradation Assay; type: cell-based; conditions: 6 hours with compound, 14-point dose response 1:3, bell-shape curve fit, half-maximal effect of first Hill model, read-out: MCF7 ESR1 HiBiT - (DC50)
Sequence (P03372 whole entry): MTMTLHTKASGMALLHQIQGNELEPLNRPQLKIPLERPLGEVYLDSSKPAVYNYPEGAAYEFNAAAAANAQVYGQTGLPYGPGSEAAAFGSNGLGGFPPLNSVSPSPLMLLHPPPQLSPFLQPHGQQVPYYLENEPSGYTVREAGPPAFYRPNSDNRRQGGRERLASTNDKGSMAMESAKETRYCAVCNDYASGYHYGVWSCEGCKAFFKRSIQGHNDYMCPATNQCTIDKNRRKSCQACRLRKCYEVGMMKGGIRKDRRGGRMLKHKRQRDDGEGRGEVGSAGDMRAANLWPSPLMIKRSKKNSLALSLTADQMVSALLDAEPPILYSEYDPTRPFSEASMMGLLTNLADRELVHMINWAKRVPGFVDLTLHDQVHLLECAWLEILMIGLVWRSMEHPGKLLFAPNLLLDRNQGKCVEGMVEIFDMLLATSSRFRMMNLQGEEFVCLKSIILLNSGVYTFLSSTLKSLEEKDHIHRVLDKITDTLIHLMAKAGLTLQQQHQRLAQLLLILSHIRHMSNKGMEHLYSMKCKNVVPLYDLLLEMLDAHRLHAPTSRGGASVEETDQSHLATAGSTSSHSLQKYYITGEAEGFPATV
Test Readout: DC50 (nM)

Consider the reported DC50 for these compounds:
Compound	Assay Value
O=C1CCC(c2ccc(N3CCC4(CCN(CC5CCN(c6ccc([C@@H]7c8ccc(O)cc8CC[C@@H]7c7ccccc7)cc6)CC5)CC4)CC3)cc2)C(=O)N1 (some centres unmarked)	1.3
O=C1CC[C@H](N2Cc3cc(N4CCN(C5CCN(c6ccc([C@H]7c8ccc(O)cc8CC[C@H]7c7ccccc7)cc6)CC5)CC4)ccc3C2=O)C(=O)N1	100
O=C1CC[C@H](N2Cc3cc(N4CCN(CC5CCN(c6ccc([C@H]7c8ccc(O)cc8CC[C@H]7c7ccccc7F)cc6)CC5)CC4)ccc3C2=O)C(=O)N1 (single isomer, unassigned)	1.17
Cc1ccccc1[C@@H]1CCc2cc(O)ccc2[C@@H]1c1ccc(N2CCC(CN3CCN(c4ccc5c(c4)CN([C@H]4CCC(=O)NC4=O)C5=O)CC3)CC2)cc1 (single isomer, unassigned)	0.34
O=C1CCC(N2Cc3cc(N4CCN(CC5CCN(c6ccc([C@@H]7c8ccc(O)cc8CC[C@@H]7C7CCCC7)cc6)CC5)CC4)ccc3C2=O)C(=O)N1 (single isomer, unassigned)	9
O=C1CC[C@H](N2Cc3cc(N4CCN(CC5CCN(c6ccc([C@@H]7c8ccc(O)cc8C(F)(F)C[C@@H]7c7ccc(F)cc7F)cc6)CC5)CC4)ccc3C2=O)C(=O)N1	0.33
O=C1CCN(c2ccc(N3CCC4(CCN(CC5CCN(c6ccc([C@@H]7c8ccc(O)cc8CC[C@@H]7c7ccccc7)cc6)CC5)C4)CC3)cc2)C(=O)N1	0.7
Cc1cc(F)cc(F)c1[C@@H]1CCc2cc(O)ccc2[C@@H]1c1ccc(N2CCC(CN3CCN(c4ccc5c(c4)CN([C@H]4CCC(=O)NC4=O)C5=O)CC3)CC2)cc1	361
O=C1CC[C@H](N2Cc3cc(N4CCN(CC5CCN(c6ccc([C@@H]7c8ccc(O)cc8CC[C@@H]7c7cccc(O)c7)cc6)CC5)CC4)ccc3C2=O)C(=O)N1	0.07
O=C1CCN(c2ccc(N3CC[C@@]4(CCN(CC5CCN(c6ccc([C@@H]7c8ccc(O)cc8C(F)(F)C[C@@H]7c7ccccc7)cc6)CC5)C4)C3)cc2)C(=O)N1 (single isomer, unassigned)	0.22

(1) O=C1CC[C@H](N2Cc3cc(N4CCN(CC5CCN(c6ccc([C@@H]7c8ccc(O)cc8CC[C@@H]7c7cccc(OC(F)(F)F)c7)cc6)CC5)CC4)ccc3C2=O)C(=O)N1 (single isomer, unassigned)
(2) C[C@H]1Cc2cc(O)ccc2[C@H](c2ccc(N3CCC(CN4CCN(c5ccc6c(c5)CN([C@H]5CCC(=O)NC5=O)C6=O)CC4)CC3)cc2)[C@@H]1c1ccccc1
IN: Which of these two has the smaller recorded DC50: 1 or 2 ? Please indicate the selected item by its label.
OUT: 2
(2: 28 nM, 1: 1400 nM)

(a) O=C1CC[C@H](N2Cc3cc(N4CCN(CC5CCN(c6ccc([C@H]7c8ccc(O)cc8CC[C@H]7c7cccc(OC(F)(F)F)c7)cc6)CC5)CC4)ccc3C2=O)C(=O)N1 (single isomer, unassigned)
(b) O=C1CC[C@H](N2Cc3cc(N4CCN(CC5CCN(c6ccc([C@@H]7c8ccc(O)cc8C(F)(F)C[C@@H]7c7ccccc7)nc6)CC5)CC4)ccc3C2=O)C(=O)N1
IN: Which record would sort first by descending DC50, a or b ? Please indicate the selected item by its label.
OUT: b
(b: 0.23 nM, a: 0.155 nM)

(a) CC[C@@H]1CCc2cc(O)ccc2[C@@H]1c1ccc(N2CCC(CN3CCN(c4ccc5c(c4)CN([C@H]4CCC(=O)NC4=O)C5=O)CC3)CC2)cc1 (single isomer, unassigned)
(b) Cn1c(=O)n([C@H]2CCC(=O)NC2=O)c2ccc(N3CCN(CC4CCN(c5ccc([C@@H]6c7ccc(O)cc7C(F)(F)C[C@@H]6c6ccccc6)cc5)CC4)CC3)cc21 (single isomer, unassigned)
IN: Which of these two has the smaller recorded DC50: a or b ? Please indicate the selected item by its label.
OUT: a
(a: 0.14 nM, b: 0.3 nM)
